target-or-test-system: human GLP-1 receptor (Homo sapiens)
Construct: expressed in transfected cells
test-summary: GLP-1R cAMP Assay
Assay type: cell-based
condition-summary: cAMP accumulation in CHO cells stably overexpressing the human GLP-1 receptor; 30 min treatment; HitHunter cAMP kit; read-out: EC50
pEC50: −log10 of the molar value.
Quick reference: pEC50 of the listed items.

molecular-string: CCn1cncc1Cn1c(CN2CCC(Oc3cnc(COc4ccc(Cl)cc4Cl)o3)CC2)nc2ccc(C(=O)O)cc21
pEC50: > 7.30

molecular-string: CCn1cncc1Cn1c(CN2CCN(C(=O)c3cnc(COc4ccc(Cl)cc4Cl)o3)CC2)nc2ccc(C(=O)O)cc21
pEC50: > 7.30

molecular-string: Cc1ccc(OCc2cccc(CC3CCN(Cc4nc5ccc(C(=O)O)cc5n4C[C@@H]4CCO4)CC3)n2)c(C#N)c1
pEC50: > 7.30

molecular-string: O=C(O)c1ccc2nc(CN3CCC(Oc4cccc(COc5ccc(Cl)cc5F)n4)CC3)n(Cc3ccno3)c2c1
pEC50: > 7.30

molecular-string: N#Cc1ccc(OCc2cccc(C(=O)N3CCN(Cc4nc5ccc(C(=O)O)cc5n4C[C@@H]4CCO4)CC3)c2)c(F)c1
pEC50: < 6.30

molecular-string: Cc1cccc(Oc2cccc(C(=O)N3CCN(Cc4nc5ccc(C(=O)O)cc5n4C[C@@H]4CCO4)CC3)c2)c1
pEC50: < 6.30

molecular-string: Cc1ccc(N(C)c2cccc(C=C3CCN(Cc4nc5ccc(C(=O)O)cc5n4C[C@@H]4CCO4)CC3)c2)c(Cl)c1
pEC50: 6.30 to 7.30

###

target-or-test-system: human GLP-1 receptor (Homo sapiens, UniProt P43220)
Construct: expressed in transfected cells
Sequence (P43220 24-463): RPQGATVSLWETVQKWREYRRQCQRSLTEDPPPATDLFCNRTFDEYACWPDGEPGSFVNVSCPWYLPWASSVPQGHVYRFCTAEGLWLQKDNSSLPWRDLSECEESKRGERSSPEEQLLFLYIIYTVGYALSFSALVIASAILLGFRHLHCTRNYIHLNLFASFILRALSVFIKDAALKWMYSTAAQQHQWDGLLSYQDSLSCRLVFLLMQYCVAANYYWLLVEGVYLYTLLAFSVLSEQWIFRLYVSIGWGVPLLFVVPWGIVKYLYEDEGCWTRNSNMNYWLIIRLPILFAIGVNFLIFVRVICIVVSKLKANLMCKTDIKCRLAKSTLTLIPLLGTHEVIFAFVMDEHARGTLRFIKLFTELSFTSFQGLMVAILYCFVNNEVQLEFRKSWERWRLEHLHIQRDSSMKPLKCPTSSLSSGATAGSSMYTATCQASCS
test-summary: GLP-1R cAMP Assay
Type: cell-based
condition-summary: cAMP accumulation in CHO cells stably overexpressing the human GLP-1 receptor; 30 min treatment; HitHunter cAMP kit; read-out: EC50

compound: CCn1cncc1Cn1c(CN2CCC(Cc3cccc(COc4ccc(C5CC5)cc4Cl)n3)CC2)nc2ccc(C(=O)O)cc21 [Compound 153]
EC50: < 50 nM

compound: O=C(O)c1ccc2nc(CN3CCC(Oc4ccnc(COc5ccc(Cl)cc5F)c4)CC3)n(CC3(O)CC3)c2c1 [Compound 345]
EC50: < 50 nM

compound: Cc1ccc(N(C)c2cc(C(=O)N3CCN(Cc4nc5ccc(C(=O)O)cc5n4C[C@@H]4CCO4)CC3)ccn2)c(Cl)c1 [Example 99]
EC50: 50 to 500 nM

compound: Cc1ccc(N(C)c2cccc(C(=O)N3CCN(Cc4nc5ccc(C(=O)O)cc5n4C[C@@H]4CCO4)CC3)n2)c(Cl)c1 [Compound 101]
EC50: 50 to 500 nM

compound: C[C@H]1C[C@@H](Oc2ccnc(COc3ccc(Cl)cc3Cl)c2)CCN1Cc1nc2ccc(C(=O)O)cc2n1C[C@@H]1CCO1 [Compound 283]
EC50: < 50 nM

compound: CC(Oc1ccc(C#N)cc1F)c1nccc(OC2CCN(Cc3nc4ccc(C(=O)O)cc4n3C[C@@H]3CCO3)CC2)n1 (mixture of isomers) [Example 480]
EC50: 50 to 500 nM

###

target-or-test-system: human GLP-1 receptor (Homo sapiens, UniProt P43220)
Construct: expressed in transfected cells
test-summary: GLP-1R cAMP Assay
Type: cell-based
condition-summary: cAMP accumulation in CHO cells stably overexpressing the human GLP-1 receptor; 30 min treatment; HitHunter cAMP kit; read-out: EC50
Quick reference: EC50 of the listed items.

molecule: CCn1cncc1Cn1c(CN2CCC(Cc3cnc(COc4ccc(Cl)cc4Cl)o3)CC2)nc2ccc(C(=O)O)cc21 [Compound 124]
EC50: < 50 nM
--
molecule: C[C@H]1C[C@@H](Oc2ccnc(COc3ccc(C#N)cc3Cl)n2)CCN1Cc1nc2ccc(C(=O)O)cc2n1C[C@@H]1CCO1 [Compound 477]
EC50: < 50 nM
--
molecule: CCn1cncc1Cn1c(CN2CCC([C@@H](OC)c3cccc(COc4ccc(Cl)cc4Cl)c3)CC2)nc2ccc(C(=O)O)cc21 (single isomer, unassigned) [Example 204]
EC50: 50 to 500 nM
--
molecule: N#Cc1ccc(OCc2nccc(O[C@@H]3C[C@@H]4C[C@H]3CN4Cc3nc4ccc(C(=O)O)cc4n3C[C@@H]3CCO3)n2)c(F)c1 [Compound 506]
EC50: < 50 nM
--
molecule: CCn1cncc1Cn1c(CN2CCN(Cc3ccc(COc4ccc(Cl)cc4Cl)o3)CC2)nc2ccc(C(=O)O)cc21 [Compound 63]
EC50: < 50 nM
--
molecule: O=C(O)c1ccc2nc(CN3CCC(Oc4cccc(COc5ccc(Cl)cc5F)c4)CC3)n(C[C@@H]3CCO3)c2c1 [Compound 221]
EC50: < 50 nM
--
molecule: CCN(c1cccc(C(=O)N2CCN(Cc3nc4ccc(C(=O)O)cc4n3C[C@@H]3CCO3)CC2)c1)c1ccc(C)cc1Cl [Compound 52]
EC50: < 50 nM
--
molecule: C[C@H]1C[C@@H](Oc2ccnc(COc3ccc(F)cc3F)n2)CCN1Cc1nc2ncc(C(=O)O)cc2n1C[C@@H]1CCO1 [Compound 512]
EC50: > 500 nM
--
molecule: O=C(O)c1ccc2nc(CN3CCC(Cc4cccc(COc5ccc(Cl)cc5Cl)c4)CC3)n(C[C@@H]3CCO3)c2c1 [Compound 103]
EC50: < 50 nM
--
molecule: N#Cc1ccc(OCc2cc(OC3CCN(Cc4nc5c(F)cc(C(=O)O)cc5n4C[C@@H]4CCO4)CC3)c(F)cn2)c(F)c1 [Compound 478]
EC50: < 50 nM
--
molecule: CCn1cncc1Cn1c(CN2CCC(Cc3cc(F)cc(COc4ccc(Cl)cc4Cl)c3)CC2)nc2ccc(C(=O)O)cc21 [Compound 133]
EC50: < 50 nM
--
molecule: CCn1cncc1Cn1c(CN2CCC(CO)(Cc3ccnc(COc4ccc(Cl)cc4Cl)c3)CC2)nc2ccc(C(=O)O)cc21 [Example 150]
EC50: < 50 nM
--
molecule: CCn1cncc1Cn1c(CN2CCN(C(=O)c3cccc(Nc4ccc(C)cc4Cl)c3)CC2)nc2ccc(C(=O)O)cc21 [Compound 58]
EC50: > 500 nM
--
molecule: N#Cc1cc(Cl)ccc1OCc1cccc(CC2CCN(Cc3nc4ccc(C(=O)O)cc4n3C[C@H]3CCOC3)CC2)c1 [Compound 158]
EC50: < 50 nM
--
molecule: O=C(O)c1ccc2nc(CN3CCC(Oc4ccnc(COc5ccc(F)cc5C(F)F)c4)CC3)n(C[C@@H]3CCO3)c2c1 [Compound 357]
EC50: < 50 nM
--
molecule: C[C@H]1C[C@@H](Oc2ccnc(COc3ccc(C#N)cc3F)n2)CCN1Cc1nc2ccc(C(=O)O)nc2n1C[C@@H]1CCO1 [Compound 375]
EC50: < 50 nM
--
molecule: C[C@H]1C[C@H](Oc2cccc(COc3ccc(Cl)cc3Cl)c2)CCN1Cc1nc2ccc(C(=O)O)cc2n1C[C@@H]1CCO1 [Compound 254]
EC50: < 50 nM
--
molecule: N#Cc1cc(C2CC2)ccc1OCc1nccc(OC2CCN(Cc3nc4c(F)cc(C(=O)O)cc4n3C[C@@H]3CCO3)CC2)n1 [Compound 508]
EC50: < 50 nM
--
molecule: C[C@H]1C[C@@H](Oc2nc(COc3ccc(F)cc3C#N)ncc2F)CCN1Cc1nc2ccc(C(=O)O)cc2n1C[C@@H]1CCO1 [Compound 492]
EC50: < 50 nM
--
molecule: O=C(O)c1ccc2nc(CN3CCC(Oc4cc(COc5ccc(Cl)cc5F)ncc4F)CC3)n(C[C@@H]3CCO3)c2c1 [Compound 380]
EC50: < 50 nM
--
molecule: O=C(O)c1cc(F)c2nc(CN3CCC(Oc4ccnc(COc5ccc(Cl)cc5F)c4)CC3)n(C[C@@H]3CCO3)c2c1 [Compound 335]
EC50: < 50 nM
--
molecule: Cc1ccc(Cc2cccc(C(=O)N3CCN(Cc4nc5ccc(C(=O)O)cc5n4C[C@@H]4CCO4)CC3)c2)cc1 [Compound 33]
EC50: > 500 nM
--
molecule: Cc1c(Cl)cccc1OCc1ccc(C(=O)N2CCN(Cc3nc4ccc(C(=O)O)cc4n3C[C@@H]3CCO3)CC2)o1 [Example 19]
EC50: 50 to 500 nM
--
molecule: Cc1ccc(Oc2cccc(CN3CCN(Cc4nc5ccc(C(=O)O)cc5n4C[C@@H]4CCO4)CC3)c2)cc1 [Compound 35]
EC50: > 500 nM
--
molecule: CCn1cncc1Cn1c(CN2CCN(C(=O)c3cnc(COc4ccc(C5CC5)cc4Cl)o3)CC2)nc2ccc(C(=O)O)cc21 [Compound 160]
EC50: < 50 nM
--
molecule: N#Cc1ccc(OCc2cc(OC3CCN(Cc4nc5c(F)cc(C(=O)O)cc5n4C[C@@H]4CCO4)CC3)ccn2)c(Cl)c1 [Compound 359]
EC50: < 50 nM
